Catalogue of TGI values
Tested on: M14 melanoma
METHOD: NCI tumour cell line growth inhibition, 48 h

COMPOUND: NS(=O)(=O)c1ccc(CNC(=S)NC(=O)Nc2ccc(Cl)c(Cl)c2)cc1
TESTED_ON: M14 melanoma
TGI: 35.8 µM

COMPOUND: COC(=O)c1c(C)nc(C)c(N=O)c1-c1ccccc1C(F)(F)F
TESTED_ON: M14 melanoma
TGI: 47.1 µM

COMPOUND: C(=N\NC1=NCCCN1)/c1ccc(-c2cn3cc(/C=N/NC4=NCCCN4)ccc3n2)cc1
TESTED_ON: M14 melanoma
TGI: > 100 µM

COMPOUND: C#CCNC(Cc1ccccc1)C(=O)O (stereo unspecified)
TESTED_ON: M14 melanoma
TGI: > 100 µM

COMPOUND: c1ccc(/C(=N/Nc2cnccn2)c2ncccn2)cc1
TESTED_ON: M14 melanoma
TGI: > 100 µM

COMPOUND: CC1SC(c2cccs2)N(NC(=O)C(O)c2ccccc2)C1=O (stereo unspecified)
TESTED_ON: M14 melanoma
TGI: > 100 µM
